test system: SKBR3-P; assay: area under growth-rate inhibition curve (AUC GRI) (dimensionless (GR-based AUC)); higher = less growth inhibition; conditions: exposure time: 72 h; concentrations: 0.1, 1, 10 uM
Readout: area under growth-rate inhibition curve
Give the figure only, with no unit attached.

{"columns": ["Compound", "System tested", "area under growth-rate inhibition curve"],
 "data": [
  ["Cc1cccc(C)c1NC(=O)CN1CCCC1=O [Nefiracetam]", "SKBR3-P", 1],
  ["CCC(COC(=O)c1cc(OC)c(OC)c(OC)c1)(c1ccccc1)N(C)C (stereo not given) [Trimebutine]", "SKBR3-P", 1.03],
  ["CN1C[C@H](C(=O)N[C@]2(C)O[C@@]3(O)[C@@H]4CCCN4C(=O)[C@H](Cc4ccccc4)N3C2=O)C[C@@H]2c3cccc4[nH]cc(c34)C[C@H]21.CS(=O)(=O)O [Dihydroergotamine mesylate]", "SKBR3-P", 0.947]
]}

Task: Please look up its area under growth-rate inhibition curve: COc1ccc(NS(=O)(=O)c2sc3ccc(Cl)cc3c2C)cc1N1CCNCC1
Result: 0.997

Task: Thanks! And CC(C)(c1ccc(OCC(O)CO)cc1)c1ccc(OCC(O)CCl)cc1 (stereo not drawn) [EPI-001] ?
Result: 1.01

====

tested on: SKBR3-P; assay: area under growth-rate inhibition curve (AUC GRI) (dimensionless (GR-based AUC)); higher = less growth inhibition; settings: exposure time: 72 h; concentrations: 0.1, 1, 10 uM
Tick 1 if area under growth-rate inhibition curve is 1 or greater. Tick 0 if area under growth-rate inhibition curve is less than 1.

{"columns": ["Compound", "Discrete label"],
 "data": [
  ["CCc1cc2c(cc1CC)CC(NC[C@H](O)c1ccc(O)c3[nH]c(=O)ccc13)C2.O=C(O)/C=C\\C(=O)O [Indacaterol Maleate]", 0]
]}

Task: Identify whether the reported area under growth-rate inhibition curve of the following compound is 1 or greater: [Cl-].[H+].c1ccc(CN(CC2=NCCN2)c2ccccc2)cc1 [Antazoline hydrochloride]
Result: 1

Task: What do you have for Cc1ccc(/C(=C\CN2CCCC2)c2ccccn2)cc1.Cl [trans-Triprolidine hydrochloride] ?
Result: 1

Task: Okay, and CNS(=O)(=O)Cc1ccc2[nH]cc(CCN(C)C)c2c1.O=C(O)CCC(=O)O [Sumatriptan Succinate] ?
Result: 1

====

tested on: SKBR3-P; test: area under growth-rate inhibition curve (AUC GRI) (dimensionless (GR-based AUC)); higher = less growth inhibition; details: exposure time: 72 h; concentrations: 0.1, 1, 10 uM
Readout: area under growth-rate inhibition curve

Solved cases (2 shown):
{"columns": ["Compound", "System tested", "area under growth-rate inhibition curve"],
 "data": [
  ["CCCSc1nc(NC2CC2c2ccc(F)c(F)c2)c2nnn(C3CC(OCCO)C(O)C3O)c2n1 (stereo unspecified) [Ticagrelor]", "SKBR3-P", 0.995],
  ["O=C(O)CCCN1CCC(OC(c2ccc(Cl)cc2)c2ccccn2)CC1.O=S(=O)(O)c1ccccc1 (stereo unspecified) [Bepotastine Besilate]", "SKBR3-P", 0.992]
]}

Task: Given O=C(NCc1ccncc1)C12CC3CC(C1)CC(c1ccc(Cl)cc1)(C3)C2 , state its recorded area under growth-rate inhibition curve.
Result: 1.02

Task: What do you have for O=C(O)COCCN1CCN(C(c2ccccc2)c2ccc(Cl)cc2)CC1.[Cl-].[Cl-].[H+].[H+] (stereo unspecified) [Cetirizine DiHCl] ?
Result: 0.997

Task: Try this compound too: CCCNS(=O)(=O)Nc1ncnc(OCCOc2ncc(Br)cn2)c1-c1ccc(Br)cc1 [Macitentan]
Result: 1.02

Task: Next compound up: Cc1c(C(=O)Nc2ccc(N3CC(C)OC(C)C3)nc2)cccc1-c1ccc(OC(F)(F)F)cc1 (stereo unspecified) [LDE225 (NVP-LDE225,Erismodegib)]
Result: 0.981

Task: Let us now turn to C[N+]1(C)C2CC(OC(=O)C(CO)c3ccccc3)CC1C1OC12.[Br-] (stereo unspecified) [Methscopolamine]
Result: 1.02

Task: Then what about the compound N=C(N)N/N=C/c1c(Cl)cccc1Cl [Guanabenz Acetate] ?
Result: 1.01

Task: Please do the same for CCN(CC)CCNC(=O)c1cc(Cl)c(N)cc1OC.Cl [MetoclopraMide HCl] as well.
Result: 1.02

Task: Field entry: Cc1cccc(Cc2cnc[nH]2)c1C.Cl [Detomidine HCl]
Result: 0.991
